Consider the following IC50 values measured on UniProt P43235.
METRIC NAME: IC50 (nM)

CHEMICAL SMILES	ASSAY TARGET	MEASURED VALUE
CCCC[C@H](NC(=O)OCC1(CSc2nccn2C)CCC1)C(=O)C(=O)N[C@H](C)c1ccccc1	UniProt P43235	61
CCCC[C@H](NC(=O)OCC1(COc2nc(-c3ccccc3)ns2)CCC1)C(=O)C(=O)N[C@H](C)c1ccccc1	UniProt P43235	50
CCCC[C@H](NC(=O)OCC1(COc2ccnc(N3CCOCC3)n2)CCC1)C(=O)C(=O)N[C@H](C)c1ccccc1	UniProt P43235	54
CCCC[C@H](NC(=O)OCC1(COc2nccs2)CCC1)C(=O)C(=O)N[C@H](C)c1ccccc1	UniProt P43235	37

====

Listing of entries alongside the reported IC50.
target: Cathepsin K (Homo sapiens, UniProt P43235)
Sequence (P43235 whole entry): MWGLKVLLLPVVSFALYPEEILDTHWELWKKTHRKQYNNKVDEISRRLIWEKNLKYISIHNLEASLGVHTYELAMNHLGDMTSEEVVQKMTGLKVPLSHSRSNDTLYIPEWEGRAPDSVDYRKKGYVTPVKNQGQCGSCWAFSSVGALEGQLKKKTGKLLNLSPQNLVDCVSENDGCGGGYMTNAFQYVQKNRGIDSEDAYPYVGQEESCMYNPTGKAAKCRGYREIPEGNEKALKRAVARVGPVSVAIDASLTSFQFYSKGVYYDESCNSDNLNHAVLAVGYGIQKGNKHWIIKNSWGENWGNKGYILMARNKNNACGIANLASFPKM
METRIC NAME: IC50 (nM)

CHEMICAL SMILES	READING UNIT	RESULT MODIFIER	MEASURED VALUE
CCCC[C@H](NC(=O)OCC1(CSc2ncccn2)CCC1)C(=O)C(=O)N[C@H](C)c1ccccc1	nM	=	11
CCCC[C@H](NC(=O)OCC1(CCCSc2nccn2C)CCC1)C(=O)C(=O)N[C@H](C)c1ccccc1	nM	=	1900
CCCC[C@H](NC(=O)OCC1(CCSc2nccn2C)CCC1)C(=O)C(=O)N[C@H](C)c1ccccc1	nM	>	12000
CCCC[C@H](NC(=O)OCC1(COc2nc(-c3ccc(C)cc3)cs2)CCC1)C(=O)C(=O)N[C@H](C)c1ccccc1	nM	=	150
